The measurements presented in this section are drawn from patent US7326684B2.

assay: in vivo; settings: BCA, mouse, ip
measured.parameter: LD50

Just so you know, measured LD50 for H-VKGFY-OH [Pentarphin, Val-Lys-Gly-Phe-Tyr] came out at 2500 mg/kg
